system: T1, Human FRα ECD-Avi-His (human, biotin on the Avi-tag (BirA) in the HTRF assays)
T1 construct: also called biotinylated human FRα; folate receptor alpha
T1 sequence (chain, as listed by the source limits assumed): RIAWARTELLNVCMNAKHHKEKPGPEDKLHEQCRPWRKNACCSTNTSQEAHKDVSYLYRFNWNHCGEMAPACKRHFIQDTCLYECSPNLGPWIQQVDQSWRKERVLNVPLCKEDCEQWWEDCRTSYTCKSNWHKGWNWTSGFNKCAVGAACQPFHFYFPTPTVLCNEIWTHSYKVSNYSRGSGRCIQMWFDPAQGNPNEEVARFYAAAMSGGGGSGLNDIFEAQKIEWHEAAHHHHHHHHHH
assay-procedure: SPR (Biacore T200, 25°C); antibody captured on Protein A, FRα ECD as analyte
measurement-label: kon
Hey, just the number and the unit after it is fine.

binder: AB1370083 hIgG1 (antibody, V domains shown) VH: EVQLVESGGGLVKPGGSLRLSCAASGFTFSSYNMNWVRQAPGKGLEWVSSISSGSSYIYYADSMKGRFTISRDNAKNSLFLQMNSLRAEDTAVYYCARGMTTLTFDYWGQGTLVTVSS VL: DIQMTQSPSSLSASVGDRVTITCRASQGISTFLAWFQQKPGKAPKSLIYAASSLQSGVPSKFSGSGSETDFTLTISSLQPEDFATYYCQQYISYPLTFGGGTKVEIKR
kon: 145000 M⁻¹ s⁻¹
//
binder: AB1370095 hIgG1 (antibody, V domains shown) VH: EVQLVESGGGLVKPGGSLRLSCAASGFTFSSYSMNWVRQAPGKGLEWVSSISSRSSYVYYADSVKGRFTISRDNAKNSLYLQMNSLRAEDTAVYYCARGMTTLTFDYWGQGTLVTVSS VL: DIQMTQSPSSLSASVGDRVTITCRASQGISSFLAWFQQKPGKAPKSLIYAASSLQSGVPSKFSGSGSGTDFTLTISSLQPEDFATYYCQQYNSYPLTFGGGTKVEIKR
kon: 95700 M⁻¹ s⁻¹
//
binder: AB1370026 hIgG1 (antibody, V domains shown) VH: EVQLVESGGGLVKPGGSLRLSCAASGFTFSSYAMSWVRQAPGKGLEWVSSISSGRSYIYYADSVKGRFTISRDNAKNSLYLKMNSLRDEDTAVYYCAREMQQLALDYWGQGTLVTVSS VL: DIQMTQSPSSLSASVGDRVTITCRASQGISNFLAWFQQAPGKAPKSLIYAASSLQSGVPSKFSGSGSGTDFTLTISSLQPEDFATYYCQQYNSYPFTFGQGTKLEIKR
kon: 279000 M⁻¹ s⁻¹

// field: kon; key: AB1370035 hIgG1 (antibody, V domains shown) VH: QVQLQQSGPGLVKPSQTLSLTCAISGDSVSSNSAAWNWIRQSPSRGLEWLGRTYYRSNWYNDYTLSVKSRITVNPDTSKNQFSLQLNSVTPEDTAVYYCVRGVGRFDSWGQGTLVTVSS VL: DIQMTQSPSTLSASVGDRVIITCRASQSISSWLAWYQQKPGKAPKLLIYKASSLESGVPSRFSGSGSGTEFTLTITSLQPDDFASYYCQEYKTYSIFTFGPGTKVDIKR ; value = 568000 M⁻¹ s⁻¹
